Entries annotated with measured melting point
measuredMetric: melting point

chemicalStructure | result
O=C1NCc2c1cc1c(Br)cc3c(c1c2-c1ccc2c(c1)OCO2)OCO3 | 285 °C (dec.)
O=C1OCc2c1cc1c(I)cc3c(c1c2-c1ccc2c(c1)OCO2)OCO3 | 255 °C (dec.)
O=C([O-])c1cc2c(I)cc3c(c2c(-c2ccc4c(c2)OCO4)c1CO)OCO3.[Na+] | 212 °C (dec.)
CCOC(=O)c1c(C(=O)OCC)c(-c2ccc3c(c2)OCO3)c2c3c(ccc2c1O)OCO3 | 192 to 194 °C
COC(=O)c1c(C(=O)O)cc2ccc3c(c2c1-c1ccc2c(c1)OCO2)OCO3 | 273 to 275 °C
O=C([O-])c1cc2ccc3c(c2c(-c2ccc4c(c2)OCO4)c1CO)OCO3.[Na+] | 128 to 130 °C
CC(=O)NN1C(=O)c2cc3ccc4c(c3c(-c3ccc5c(c3)OCO5)c2C1=O)OCO4 | 281 to 283 °C
O=C1OCc2c1c(-c1ccc3c(c1)OCO3)c1c3c(ccc1c2O)OCO3 | 257 °C (dec.)

Measured values drawn from patent US7754718B2 for this set.
